The measured values listed here are drawn from paper PMC3304490.

Here, each record is paired with measured Kd data.
Target: CR5 (DxDDD) domain of LRP (Homo sapiens, UniProt Q07954)
Sequence (Q07954 934-973 limits assumed): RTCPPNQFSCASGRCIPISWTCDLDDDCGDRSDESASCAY
Experiment: Tryptophan fluorescence titration of amino acid ligands with CR5 domain
Type: binding
Details: I=0.02, pH 5.5, 298 K
Give just the numeric value; µM need not be written.

Below are worked cases with known answers.
COC(=O)[C@@H](N)CCCCN 180
COC(=O)[C@@H](N)CCCN=C(N)N 290

Now look at this one.
Asked: Retrieve Kd measured for COC(=O)[C@H](CCCCN)NC(C)=O and print it.
Given back: 1800

###

Molecular target: CR8 (DxDxD) domain of LRP (Homo sapiens)
Sequence (Q07954 1060-1099 limits assumed): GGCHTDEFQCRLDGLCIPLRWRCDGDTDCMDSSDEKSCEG
Experiment: Tryptophan fluorescence titration of amino acid ligands with CR8 domain
Type: binding
result-type: pKd
Remember, pKd is on a log scale: it is -log10 of the molar concentration.

compound	pKd
NCCCC[C@H](N)C(=O)O [unmodified lysine, lysine]	2.98

Now look at this one.
Asked: Retrieve pKd measured for COC(=O)[C@H](C)N [Alanine methyl ester] and print it.
Given back: 2.31

###

Biological target: D1085A (DxxxD) CR8 variant (Homo sapiens, UniProt Q07954, D1085A)
Sequence (Q07954 1060-1099 D1085A limits assumed): as the sequence (Q07954 1060-1099 limits assumed) above, with D26A counted along it
Assay: Tryptophan fluorescence titration of amino acid ligands with CR8 variant D1085A
Conditions: I=0.02, pH 5.5, 298 K
result-type: pKd
Remember, pKd is on a log scale: it is -log10 of the molar concentration.

Below are worked cases with known answers.
compound	pKd
COC(=O)[C@H](CCCCN)NC(C)=O [N^α-acetyl-lysine methyl ester]	1.89
COC(=O)[C@@H](N)CCCN=C(N)N [Arginine methyl ester]	2.55

Now look at this one.
Asked: Retrieve pKd measured for COC(=O)[C@@H](N)CCCCN [Lysine methyl ester] and print it.
Given back: 2.43
